Entries annotated with measured Activity
- measuredTarget: Adenosine receptor A1 (Homo sapiens)
- testProtocol: Allosteric modulation of Homo sapiens (human) Adenosine A1 receptor expressed in CHO cells assessed as reduction of cAMP level at 10 uM after 6 min by radioimmunoassay
- Format: functional, cell-based
- Design: scale not given: the % may be the effect or the level left
Numeric answer only, unit % assumed.

Worked examples, 3 compounds total:
# compound Nc1sc2c(c1C(=O)c1ccc(Cl)cc1)CCC(c1ccccc1)C2 (centres undefined) ; its Activity = -7

# compound Nc1sc2c(c1C(=O)c1ccc(Cl)cc1)CCSC2 ; its Activity = -0.3

# compound COc1ccc(C2SCc3c(sc(N)c3C(=O)c3ccc(Cl)cc3)S2)cc1 (centres undefined) ; its Activity = -5

API: the following record is the query input.
# compound Nc1sc2c(c1C(=O)c1ccc(Cl)cc1)CCC1(C2)OCCO1 ; its Activity = 28

###

Entries annotated with measured Activity
- measuredTarget: Adenosine receptor A1 (Homo sapiens)
- testProtocol: Allosteric modulation of Homo sapiens (human) Adenosine A1 receptor expressed in CHO cells assessed as reduction of cAMP level at 0.1 uM after 6 min by radioimmunoassay
- Format: functional, cell-based
- Design: scale not given: the % may be the effect or the level left
Give me the value, and tack the unit on after it.

# compound Nc1sc2c(c1C(=O)c1ccc(Cl)cc1)CCS2 ; its Activity = 11%

# compound CS(=O)(=O)OC1CCc2c(sc(N)c2C(=O)c2ccc(Cl)cc2)C1 (stereo not given) ; its Activity = -1%

# compound Nc1sc2c(c1C(=O)c1ccc(Cl)cc1)CCC(c1ccccc1)C2 (stereo not given) ; its Activity = -1%

# compound COc1ccc(C2SCc3c(sc(N)c3C(=O)c3ccc(Cl)cc3)S2)cc1 (stereo not given) ; its Activity = -13%

# compound Nc1sc2c(c1C(=O)c1ccc(Cl)cc1)CCC(O)C2 (stereo not given) ; its Activity = -13%

***
# compound Nc1sc2c(c1C(=O)c1ccc(Cl)cc1)CCCC2 ; its Activity = -23%

# compound Nc1sc2c(c1C(=O)c1ccc(Cl)cc1)CCC(Cc1ccccc1)C2 (stereo not given) ; its Activity = -6%

# compound Nc1sc2c(c1C(=O)c1ccc(Cl)cc1)CCC1(C2)OCCO1 ; its Activity = -14%

# compound Nc1sc2c(c1C(=O)c1ccc(Cl)cc1)CCSC2 ; its Activity = -10%

# compound Nc1sc2ccccc2c1C(=O)c1ccc(Cl)cc1 ; its Activity = -5%

###

- measuredTarget: UniProtKB P30542
- Sequence (P30542 whole entry): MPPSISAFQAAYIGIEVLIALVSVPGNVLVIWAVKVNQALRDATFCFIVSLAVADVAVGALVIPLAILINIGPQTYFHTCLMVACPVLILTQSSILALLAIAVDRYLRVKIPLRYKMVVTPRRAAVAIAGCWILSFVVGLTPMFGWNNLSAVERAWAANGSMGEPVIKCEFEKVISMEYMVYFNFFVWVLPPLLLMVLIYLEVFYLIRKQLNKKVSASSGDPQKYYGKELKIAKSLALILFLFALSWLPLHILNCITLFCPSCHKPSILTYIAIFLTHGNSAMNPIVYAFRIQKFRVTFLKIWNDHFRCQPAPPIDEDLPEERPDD
- testProtocol: Allosteric modulation of Homo sapiens (human) Adenosine A1 receptor expressed in CHO cells assessed as reduction of cAMP level at 0.01 uM after 6 min by radioimmunoassay
- Type: functional, cell-based
- Parameters: scale not given: the % may be the effect or the level left
measuredProperty: Activity (%)
Numeric answer only, unit % assumed.

Worked examples, 3 compounds total:
// compound Nc1sc2c(c1C(=O)c1ccc(Cl)cc1)CCC1(C2)OCCO1 , assay UniProtKB P30542, Activity value: -17

// compound Nc1sc2c(c1C(=O)c1ccc(Cl)cc1)CCC(c1ccccc1)C2 (stereo not given) , assay UniProtKB P30542, Activity value: 20

// compound Nc1sc2c(c1C(=O)c1ccc(Cl)cc1)CCC(O)C2 (stereo not given) , assay UniProtKB P30542, Activity value: -3

***
// compound COc1ccc(C2SCc3c(sc(N)c3C(=O)c3ccc(Cl)cc3)S2)cc1 (stereo not given) , assay UniProtKB P30542, Activity value: 4

// compound Nc1sc2ccccc2c1C(=O)c1ccc(Cl)cc1 , assay UniProtKB P30542, Activity value: -8

// compound Nc1sc2c(c1C(=O)c1ccc(Cl)cc1)CCSC2 , assay UniProtKB P30542, Activity value: 15

// compound CS(=O)(=O)OC1CCc2c(sc(N)c2C(=O)c2ccc(Cl)cc2)C1 (stereo not given) , assay UniProtKB P30542, Activity value: 11

// compound Nc1sc2c(c1C(=O)c1ccc(Cl)cc1)CCC(Cc1ccccc1)C2 (stereo not given) , assay UniProtKB P30542, Activity value: -11

// compound Nc1sc2c(c1C(=O)c1ccc(Cl)cc1)CCS2 , assay UniProtKB P30542, Activity value: -1

// compound Nc1sc2c(c1C(=O)c1ccc(Cl)cc1)CCCC2 , assay UniProtKB P30542, Activity value: -8
